Attribution: patent US10793563B2

# TESTED SYSTEM: intracellular GCN2 (phosphorylation of the GCN2 substrate eIF2α) (Homo sapiens (Human), UniProt Q9P2K8)
# Sequence (Q9P2K8 whole entry): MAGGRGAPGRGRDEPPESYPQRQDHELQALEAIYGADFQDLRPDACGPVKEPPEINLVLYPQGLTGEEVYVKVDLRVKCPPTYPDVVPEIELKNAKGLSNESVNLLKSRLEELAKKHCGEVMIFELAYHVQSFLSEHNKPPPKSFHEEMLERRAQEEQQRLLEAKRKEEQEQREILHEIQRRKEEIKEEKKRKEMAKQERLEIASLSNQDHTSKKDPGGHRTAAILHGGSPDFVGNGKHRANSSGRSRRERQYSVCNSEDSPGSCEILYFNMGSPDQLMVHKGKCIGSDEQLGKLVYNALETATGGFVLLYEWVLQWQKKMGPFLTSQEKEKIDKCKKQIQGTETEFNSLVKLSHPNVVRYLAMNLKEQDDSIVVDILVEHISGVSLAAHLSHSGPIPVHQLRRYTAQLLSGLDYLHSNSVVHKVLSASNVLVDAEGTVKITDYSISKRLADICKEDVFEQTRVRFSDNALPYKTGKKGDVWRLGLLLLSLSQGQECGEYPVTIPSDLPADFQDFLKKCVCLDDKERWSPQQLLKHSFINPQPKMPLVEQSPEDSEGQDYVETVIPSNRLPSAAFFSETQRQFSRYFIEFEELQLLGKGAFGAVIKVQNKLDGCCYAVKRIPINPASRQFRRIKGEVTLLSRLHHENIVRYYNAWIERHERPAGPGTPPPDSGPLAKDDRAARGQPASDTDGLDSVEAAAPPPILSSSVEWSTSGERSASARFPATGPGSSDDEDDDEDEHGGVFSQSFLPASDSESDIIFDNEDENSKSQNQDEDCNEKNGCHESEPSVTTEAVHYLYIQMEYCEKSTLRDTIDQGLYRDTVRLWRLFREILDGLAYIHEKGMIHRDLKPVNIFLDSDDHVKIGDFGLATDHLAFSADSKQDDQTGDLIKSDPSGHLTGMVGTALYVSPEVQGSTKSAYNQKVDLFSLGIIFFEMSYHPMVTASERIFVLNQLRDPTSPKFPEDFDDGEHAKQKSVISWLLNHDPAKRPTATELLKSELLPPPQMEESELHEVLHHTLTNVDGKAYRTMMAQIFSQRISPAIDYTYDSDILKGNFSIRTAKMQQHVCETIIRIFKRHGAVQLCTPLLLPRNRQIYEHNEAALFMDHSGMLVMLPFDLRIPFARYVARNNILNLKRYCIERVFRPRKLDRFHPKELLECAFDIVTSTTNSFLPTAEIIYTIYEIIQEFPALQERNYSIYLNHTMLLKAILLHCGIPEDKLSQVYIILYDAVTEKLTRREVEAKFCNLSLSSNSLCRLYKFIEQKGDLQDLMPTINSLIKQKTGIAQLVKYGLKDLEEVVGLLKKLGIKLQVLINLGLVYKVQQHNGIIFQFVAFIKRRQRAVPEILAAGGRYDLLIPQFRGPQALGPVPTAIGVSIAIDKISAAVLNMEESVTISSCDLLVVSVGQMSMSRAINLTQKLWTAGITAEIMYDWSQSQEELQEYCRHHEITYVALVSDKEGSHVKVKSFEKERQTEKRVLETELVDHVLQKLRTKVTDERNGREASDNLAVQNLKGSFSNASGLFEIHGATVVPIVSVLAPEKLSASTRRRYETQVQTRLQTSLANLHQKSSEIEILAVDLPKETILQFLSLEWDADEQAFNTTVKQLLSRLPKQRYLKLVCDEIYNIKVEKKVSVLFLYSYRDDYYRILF
# ASSAY NOTES: GCN2 Cellular Inhibition Assay (AlphaScreen SureFire P-eIF2α Ser51, borrelidin-treated U2OS cells)
# Type: cell-based
# CONDITIONS: 10 μM borrelidin, 1 h, phosphorylated eIF2α Ser51, read-out: GCN2 Biomarker (IC50)
PROPERTY NAME: IC50

compound=C[C@H]1CN(c2ccnc(-c3cnc4ccc(C(F)F)cn34)n2)C[C@@H](CO)O1 obs_value="500 to 5000 nM"
compound="C[C@H]1C[C@H](c2cn[nH]c2)CN(c2nccc(-c3cnc4ccc(Cl)cn34)n2)C1 (stereo in doubt)" obs_value="500 to 5000 nM"
compound="FC(F)(F)c1ccc2ncc(-c3nccc(N4CCN(CC5CCOCC5)C(c5cn[nH]c5)C4)n3)n2c1 (stereo not shown)" obs_value="< 500 nM"

Reported IC50 for O=C(C1CC(F)(F)C1)N1CCN(c2ccnc(-c3cnc4ccc(C(F)(F)F)cn34)n2)CC1c1cn[nH]c1 (stereo not shown) : what is it?
500 to 5000 nM

Can you look up the measured IC50 of "COCCn1cc([C@@H]2C[C@H](C)CN(c3nccc(-c4cnc5ccc(C(F)(F)F)cn45)n3)C2)cn1" for me?
500 to 5000 nM

Form field: reported IC50 of O=C(O)C1(C2CCCN(c3ccnc(-c4cnc5ccc(Cl)cn45)n3)C2)CC1 (stereo not shown)
500 to 5000 nM

So what's the measured IC50 for this one? O=C(O)CC1CN(c2ccnc(-c3cnc4ccc(Cl)cn34)n2)CCO1 (stereo not shown)
> 5000 nM

----------
Recorded below: pIC50, system GCN2 kinase (Homo sapiens (Human), UniProt Q9P2K8).
pIC50: −log10 of the molar value.

Reference set, count: 7
compound=C[C@@H]1CN(c2ccnc(-c3cnc4ccc(C(F)(F)F)cn34)n2)C[C@H](C)N1C(=O)c1cc2n(n1)CCOC2 tested_system="GCN2 kinase (Homo sapiens (Human), UniProt Q9P2K8)" obs_value="6.00 to 7.00"
compound="Cc1[nH]ncc1C1CC(F)CN(c2ccnc(-c3cnc4cc(F)c(Cl)cn34)n2)C1 (centres unmarked)" tested_system="GCN2 kinase (Homo sapiens (Human), UniProt Q9P2K8)" obs_value="7.00 to 8.00"
compound="Fc1ccc(CN2CCN(c3ccnc(-c4cnc5ccc(C(F)(F)F)cn45)n3)CC2c2cn[nH]c2)cc1F (centres unmarked)" tested_system="GCN2 kinase (Homo sapiens (Human), UniProt Q9P2K8)" obs_value="7.00 to 8.00"
compound=NC(=O)[C@@H]1CCCN(c2ccnc(-c3cnc4ccc(Cl)cn34)n2)C1 tested_system="GCN2 kinase (Homo sapiens (Human), UniProt Q9P2K8)" obs_value="7.00 to 8.00"
compound=O=C(CO)N[C@H]1C[C@H](O)CN(c2ccnc(-c3cnc4ccc(C(F)(F)F)cn34)n2)C1 tested_system="GCN2 kinase (Homo sapiens (Human), UniProt Q9P2K8)" obs_value="6.00 to 7.00"
compound=C[C@@H]1CN(c2ccnc(-c3cnc4ccc(C(F)(F)F)cn34)n2)C[C@H](C)N1CC(F)(F)F tested_system="GCN2 kinase (Homo sapiens (Human), UniProt Q9P2K8)" obs_value="6.00 to 7.00"
compound=Cc1[nH]ncc1[C@@H]1[C@@H](C)N(c2ccnc(-c3cnc4ccc(C(F)(F)F)cn34)n2)CCN1C1COC1 tested_system="GCN2 kinase (Homo sapiens (Human), UniProt Q9P2K8)" obs_value="6.00 to 7.00"

Field request: pIC50 | item: NC(=O)CC1CCCN(c2ccnc(-c3cnc4ccc(Cl)cn34)n2)C1 (centres unmarked)
7.00 to 8.00

----------
Here, each record is paired with measured IC50 data.
# TESTED SYSTEM: intracellular GCN2 (phosphorylation of the GCN2 substrate eIF2α) (Homo sapiens (Human), UniProt Q9P2K8)
# ASSAY NOTES: GCN2 Cellular Inhibition Assay (AlphaScreen SureFire P-eIF2α Ser51, borrelidin-treated U2OS cells)
# Type: cell-based
# CONDITIONS: 10 μM borrelidin, 1 h, phosphorylated eIF2α Ser51, read-out: GCN2 Biomarker (IC50)

Field: example entries. Status: answers known.
compound=CC1(C)C[C@H]1CN1CCN(c2ccnc(-c3cnc4ccc(C(F)(F)F)cn34)n2)C[C@H]1c1cn[nH]c1 obs_value="< 500 nM"
compound=C[C@@H]1C[C@H](c2cn[nH]c2)CN(c2nccc(-c3cnc4ccc(Cl)cn34)n2)C1 obs_value="< 500 nM"
compound=C[C@@H]1CN(c2nccc(-c3cnc4ccc(Cl)cn34)n2)C[C@@H](c2cn[nH]c2)O1 obs_value="500 to 5000 nM"

Which IC50 value is on record for FC(F)c1ccc2ncc(-c3ccnc(N4CCOC(c5cn[nH]c5)C4)n3)n2c1 (centres unmarked) ?
< 500 nM

Which IC50 reading was recorded for the compound "FC(F)(F)c1ccc2ncc(-c3ccnc(N4CCN(C[C@@H]5CCCOC5)[C@H](c5cn[nH]c5)C4)n3)n2c1" ?
< 500 nM

I would be grateful if you could share the reported IC50 for "Cc1cnc(N2C[C@H](C)C[C@H](c3cn[nH]c3)C2)nc1-c1cnc2ccc(Cl)cn12" .
< 500 nM

Can you share its IC50? I mean this compound: "COc1cc(-c2cnc3ccc(Cl)cn23)nc(N2C[C@@H](C)C[C@@H](c3cn[nH]c3)C2)n1"
< 500 nM

Tell me the measured IC50 of "O=C1NC[C@@]12CCCN(c1ccnc(-c3cnc4ccc(C(F)(F)F)cn34)n1)C2" , please.
500 to 5000 nM

----------
Each entry below carries its reported IC50.
# TESTED SYSTEM: intracellular GCN2 (phosphorylation of the GCN2 substrate eIF2α) (Homo sapiens (Human), UniProt Q9P2K8)
# ASSAY NOTES: GCN2 Cellular Inhibition Assay (AlphaScreen SureFire P-eIF2α Ser51, borrelidin-treated U2OS cells)
# Type: cell-based
# CONDITIONS: 10 μM borrelidin, 1 h, phosphorylated eIF2α Ser51, read-out: GCN2 Biomarker (IC50)

Known IC50 results, listed for orientation:
compound="FC(F)(F)c1ccc2ncc(-c3nsc(N4CCOC(c5cn[nH]c5)C4)n3)n2c1 (stereo not shown)" obs_value="500 to 5000 nM"
compound=Cc1[nH]ncc1[C@H]1C[C@H](N=S(C)(C)=O)CN(c2ccnc(-c3cnc4ccc(C(F)(F)F)cn34)n2)C1 obs_value="500 to 5000 nM"
compound="OCC1(c2ccccc2)CCCN(c2ccnc(-c3cnc4cc(F)c(Cl)cn34)n2)C1 (stereo not shown)" obs_value="> 5000 nM"
compound=Cc1[nH]ncc1[C@H]1CN(c2nccc(-c3cnc4ccc(Cl)cn34)n2)C[C@@H](C)O1 obs_value="< 500 nM"
compound="Clc1ccc2ncc(-c3nccc(N4CCCC(c5ccon5)C4)n3)n2c1 (stereo not shown)" obs_value="500 to 5000 nM"
compound=CC1(C)C[C@H]1CN1CCN(c2ccnc(-c3cnc4ccc(C(F)(F)F)cn34)n2)C[C@@H]1c1cn[nH]c1 obs_value="< 500 nM"

Consider the compound shown here: "C[C@@H]1C[C@@H](NC(=O)OC(C)(C)C)CN(c2ccnc(-c3cnc4ccc(Cl)cn34)n2)C1" What is its recorded IC50?
500 to 5000 nM

Request the reported IC50 associated with O=C1NCC2CN(c3ccnc(-c4cnc5ccc(C(F)(F)F)cn45)n3)CCN12 (stereo not shown) [I-5]
500 to 5000 nM

----------
What follows is a collection of IC50 values obtained with GCN2 kinase (Homo sapiens (Human), UniProt Q9P2K8).

molecule="C[C@H]1CN(c2ccnc(-c3cnc4ccc(C(F)F)cn34)n2)C[C@@H](CO)O1 [I-524]" obs_value="10 to 100 nM"
molecule="CC1CC(C(N)=O)CN(c2ccnc(-c3cnc4ccc(C(F)(F)F)cn34)n2)C1 (stereo not shown) [I-149]" obs_value="< 10 nM"

GET /values?readout=IC50&system=GCN2 kinase (Homo sapiens (Human), UniProt Q9P2K8)&item= Cc1n[nH]cc1C1CC(F)CN(c2ccnc(-c3cnc4ccc(C(F)(F)F)cn34)n2)C1 (stereo not shown) [I-357]
10 to 100 nM

Under GCN2 kinase (Homo sapiens (Human), UniProt Q9P2K8): IC50 value of C[C@H]1CN(c2ccnc(-c3cnc4ccc(C(F)(F)F)cn34)n2)C[C@H](C(N)=O)O1 [I-129] ?
10 to 100 nM

----------
Reported Ki values, GCN2 kinase (Homo sapiens (Human), UniProt Q9P2K8).

Example entries begin here.
compound="O=C1NCC2CN(c3ccnc(-c4cnc5ccc(Cl)cn45)n3)CCN12 (centres unmarked) [I-97]" property_name=Ki obs_value="10 to 100 nM"
compound="FC(F)(F)c1ccc2ncc(-c3ccnc(N4CCOC(c5cn[nH]c5)C4)n3)n2c1 (centres unmarked) [I-9]" property_name=Ki obs_value="< 10 nM"
compound="Clc1ccc2ncc(-c3nccc(N4CCCC(c5c[nH]cn5)C4)n3)n2c1 (centres unmarked) [I-55]" property_name=Ki obs_value="10 to 100 nM"

Field request: Ki | item: Clc1ccc2ncc(-c3nccc(N4CCOC(c5cn[nH]c5)C4)n3)n2c1 (centres unmarked) [I-20]
< 10 nM

Entry OC1(c2ccccc2)CCCN(c2ccnc(-c3cnc4cc(F)c(Cl)cn34)n2)C1 (centres unmarked) [I-81] : reported Ki = ?
10 to 100 nM
